- TARGET: Mannose-6-phosphate isomerase (Homo sapiens) (UniProt P34949)
- Sequence (P34949 whole entry, looked up): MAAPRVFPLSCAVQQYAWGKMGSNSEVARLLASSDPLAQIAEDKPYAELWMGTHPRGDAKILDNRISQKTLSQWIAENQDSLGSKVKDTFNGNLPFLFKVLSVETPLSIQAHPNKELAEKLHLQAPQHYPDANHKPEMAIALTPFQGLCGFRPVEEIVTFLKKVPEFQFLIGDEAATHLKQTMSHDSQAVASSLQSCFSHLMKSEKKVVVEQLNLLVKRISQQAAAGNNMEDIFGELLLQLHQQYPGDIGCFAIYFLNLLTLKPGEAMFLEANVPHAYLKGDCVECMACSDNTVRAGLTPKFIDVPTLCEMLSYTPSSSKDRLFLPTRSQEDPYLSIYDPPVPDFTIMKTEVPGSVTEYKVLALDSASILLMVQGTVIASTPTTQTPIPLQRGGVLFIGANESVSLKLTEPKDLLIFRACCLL
- TEST: MPI inhibition at elevated mannose 6-phosphate – biochemical, fluorescence intensity, high mannose 6-phosphate, primary screen (AID 1220)
- ASSAY_CONDITIONS: recombinant PMI enzyme, coupled fluorescence intensity; at 20 µM; stronger effect = higher value
In all, about 190,000 compounds went through this assay and about 1,300 (0.68%) were called active. Only a selection was taken, and actives are over-represented in it overall.
# Lookup of reported inhibition keyed by entry
Quick note: give the figure in %, leave out the unit.

INSERT INTO assay_data (molecule, target, quantitative_result) VALUES
  ('Oc1ccc2ccccc2c1/C=N/n1cnnc1', 'Mannose-6-phosphate isomerase (Homo sapiens) (UniProt P34949)', 40.6),
  ('CCOC(=O)C1CCCN(C2CC(=O)N(c3ccc(C)cc3)C2=O)C1 (centres undefined)', 'Mannose-6-phosphate isomerase (Homo sapiens) (UniProt P34949)', -2.1),
  ('O=C1CCCC2=C1C(c1cccc(O)c1)c1c(ccc3ncccc13)N2 (centres undefined)', 'Mannose-6-phosphate isomerase (Homo sapiens) (UniProt P34949)', 35.4),
  ('CCN(CC)P(=O)(Nc1ccc(SC(F)F)cc1)c1ccc(N(C)C)cc1NC(=O)c1ccco1 (centres undefined)', 'Mannose-6-phosphate isomerase (Homo sapiens) (UniProt P34949)', 35.4),
  ('COc1cc(/C=C/C(=O)Nc2cc(S(=O)(=O)N3CCOCC3)ccc2N2CCCC2)cc(OC)c1OC', 'Mannose-6-phosphate isomerase (Homo sapiens) (UniProt P34949)', 19.5);

# input Entry "Nc1ncc(Br)cc1N=Cc1ccccc1" : reported inhibition = ?
# output 24.6

# input Note, next up: "CC(=O)Nc1c(NC(=O)CC#N)[nH]c2c(c1=O)c(=O)n(C)c(=O)n2C"
# output 15.1

# input Note, next up: O=C1CCCC2=C1C(c1ccc(O)c(O)c1)c1c(ccc3ncccc13)N2 (centres undefined)
# output 52.9

# input Note, next up: "Cn1c(/N=C/c2cc(Cl)ccc2O)nc2ccccc21"
# output 49.3

# input Note, next up: "Cc1nc2ccccc2c(=O)n1/N=C/c1c(O)ccc2ccccc12"
# output 17.6

# input Note, next up: CCOC(=O)C1=C(N)N2C(=O)C(C)SC2=C(C(=O)OC)C1c1cccc(OC)c1 (centres undefined)
# output 2.8

# input Note, next up: "COc1ccc(OCC(=O)Nc2cccc3ncccc23)cc1"
# output 3.4

# input Note, next up: "O=C(Nc1ccccc1N1CCCCC1)c1ccc(-c2cccc(Cl)c2)o1"
# output 1.7

# input Note, next up: "COc1ccc(C=Nc2cccc3ncccc23)cc1"
# output 63.3

# input Note, next up: "O=C(CSc1nnc(-c2cccs2)n1-c1ccccc1)c1ccc2c(c1)OCCO2"
# output 6.2

# input Note, next up: "O=[N+]([O-])c1ccc(Cl)c(C2Nc3cccc4cccc(c34)N2)c1"
# output 60.2

# input Note, next up: "CN(CC(=O)N1CCCc2c1c(=O)oc1ccc(O)cc21)Cc1ccccc1"
# output 3.3

# input Note, next up: "CC1=C(Sc2nc3ccccc3[nH]2)C(=O)NC(C)(C)C1"
# output 0.2

# input Note, next up: "CC1(C)OC(C)(C)/C(=C/Nc2ccccc2)C1=O"
# output 0.4

# input Note, next up: CN(Cc1cccnc1)C(=O)CC1C(=O)NCCN1Cc1ccc(-c2ccccc2)cc1 (centres undefined)
# output 8.9

# input Note, next up: "C=CCn1c(=N)c(C(=O)OCC)cc2c(=O)n3cc(C)ccc3nc21"
# output -2.4

# input Note, next up: "NC(=O)Cc1ccc(C(=O)c2ccccc2F)s1"
# output -7

# input Note, next up: "O=[N+]([O-])c1cccc(C2Nc3cccc4cccc(c34)N2)c1"
# output -12.5

# input Note, next up: "Cc1ccc(C=Nc2cccnc2N)cc1"
# output 63.2

# input Note, next up: COc1cc(C2C(C#N)=C(N)OC3=C2C(=O)CCC3)c([N+](=O)[O-])cc1OC (centres undefined)
# output 52

# input Note, next up: O=C(NCC1CCCO1)C(c1ccc(F)cc1)N(CC1CCCO1)C(=O)c1ccc(-c2ccccc2)[nH]1 (centres undefined)
# output -8.3

# input Note, next up: COc1ccccc1CN1CCNC(=O)C1CC(=O)NCc1csc(C)n1 (centres undefined)
# output 9.7
